B1: HDV Ribozyme (parent)
chain: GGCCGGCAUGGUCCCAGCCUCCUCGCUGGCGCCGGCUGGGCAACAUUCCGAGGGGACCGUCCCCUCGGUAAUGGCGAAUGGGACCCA

Variants of: B1
Assay: self-cleavage, relative activity (ratio to wild type); higher = more cleavage; co-transcriptional
self-cleavage by entry:

Example variants with recorded self-cleavage:
{"residue_codes": "GGCCGGCAUAGUCCAAGCCUCCUCGCUGGCGCCGGCUGGGCAACAUUCCGAGGGGACCGUCCCCUCGGUAAUGGCGAAUGGGACCCA", "reported_endpoint": "self-cleavage", "result": 0.208}
{"residue_codes": "GGCCGGCAUGGUCCUAGCCUCCUCGCUGGCGCCGGCUGGGCAACAUUCCGAUGGGACCGUCCCCUCGGUAAUGGCGAAUGGGACCCA", "reported_endpoint": "self-cleavage", "result": 1.21}
{"residue_codes": "GGCCGGCAUGGUCCCAGCCUCCUCGCUGGCGCCGGCUGGGCAACAUUCCGAGCGGACCGUACCCUCGGUAAUGGCGAAUGGGACCCA", "reported_endpoint": "self-cleavage", "result": 1.04}

[Q] // lookup self-cleavage for "GGCCGGCAUGGUCCCAGCAUCGUCGCUGGCGCCGGCUGGGCAACAUUCCGAGGGGACCGUCCCCUCGGUAAUGGCGAAUGGGACCCA"
[A] 0.155

[Q] Look up self-cleavage: "GGCCGGCAUGGUCCCAGCCUCCUCGCUGGCGCCGGCUGGGCAACAUUCCGAGGGGUCCGUCCCCUCGGUAGUGGCGAAUGGGACCCA"
[A] 0.762

[Q] Would you mind telling me what self-cleavage value was observed for "GGCCGGCAUGGUCCCAGCCUCCUCGCUGGCGCCGGCUGGGCAAAAUUCCGAGGGGACCGUCCCCUCGGUAAUGGCGAAUGGGAUCCA" ?
[A] 0.431

[Q] Need self-cleavage of "GGCCGGCAUGGUCCCAGCCUCCUCGCUGGCGCCGUCUGGGCAACAUUCCGAGGGGACCGUCCCCUCGGUAAUGGCGAAUGGGUCCCA" , thanks.
[A] 0.145

[Q] Report self-cleavage for "GGCCGGCAUGGUCCCAGCCUCCUCGCUGGGGCCGGCUGGGCAGCAUUCCGAGGGGACCGUCCCCUCGGUAAUGGCGAAUGGGACCCA" please.
[A] 0

[Q] Fill in: self-cleavage of "GGCCGGCAUGGCCCCAGCCUCCUCGCUGGCGCCGGCUGGGAAACAUUCCGAGGGGACCGUCCCCUCGGUAAUGGCGAAUGGGACCCA" is ___
[A] 0.388

[Q] What does the record list as self-cleavage for "GGCCGGCAUGGUCCCAGCCUCCUCGCUGGCGCUGGCUGGGCAACAUUCCGAGGGGAACGUCCCCUCGGUAAUGGCGAAUGGGACCCA" ?
[A] 0.935

[Q] Tell me the measured self-cleavage of "GGCCGGCAUGGUCCCUGCCUCCUCGCUGGCGCCGGCUGGGCAACAUUCCGAGGGGACCGUCCCCUCGGUAAUGGCGAAUGGGGCCCA" , please.
[A] 0.567
